Test: gradient 5% acetonitrile 3 min, to 50% in 2 min, to 85% in 15 min, held 3 min, 100 µL/min
Details: column: Zorbax Extend-C18 2.1 x 50 mm; eluents: water / acetonitrile, 0.1% formic acid
recorded endpoint: RP-LC retention time (s)

O=c1c2cc(-c3ccccc3)nn2ccn1Cc1noc(CN2CCCCCCC2)n1: 705
Cc1ccc(C(=O)N2CCCC(c3ccnc(Nc4ccc(F)cc4)n3)C2)s1 (centres undefined): 1020
CCc1cccc(NC(=O)C2CC(=O)N(c3ccc4c(c3)CCN4C(C)=O)C2)c1 (centres undefined): 707
CC(C)CCNC(=O)Cn1cccc(-c2nc(-c3ccc(F)cc3)no2)c1=O: 860
O=C(NCC1CC1)C1CCN(C(=O)c2ncn3c2COC(c2ccc(F)cc2)C3)CC1 (centres undefined): 699

a. Cc1ccc(NC(=O)N2CCCC(C)(C(=O)NCc3ccc(F)cc3)C2)c(C)c1 (centres undefined)
b. CCN(CC)CCCNC(=O)CCc1c(-c2ccc(Cl)cc2)nc2ccccn12
Task: Looking at recorded values for RP-LC retention time, does a or b come in lower? When you have decided, please share the label of that item.
Output: b
(b: 558 s, a: 949 s)

A. O=C(Nc1ccccc1Br)c1n[nH]nc1Nc1ccccc1
B. O=C1c2cccc(NCCCNCCO)c2C(=O)c2cccc(NCCCNCCO)c21
Task: Identify the item whose RP-LC retention time is the smaller number: A or B Could you answer with the label of the item you picked?
Output: B
(B: 583 s, A: 1100 s)

====

Test: gradient 5% acetonitrile 3 min, to 50% in 2 min, to 85% in 15 min, held 3 min, 100 µL/min
Conditions: column: Zorbax Extend-C18 2.1 x 50 mm; eluents: water / acetonitrile, 0.1% formic acid
recorded endpoint: RP-LC retention time (s)

For orientation, consider the following solved cases.
COC(=O)c1cc(OCC(=O)Nc2ccc3c(c2)OCCO3)c2cc(Cl)ccc2n1: 851
CCN1C(=O)Cc2cc(C(=O)NCc3ccccc3)ccc21: 706

1. COc1ccc(NC(=O)N2C[C@@H](F)C[C@H]2C(=O)N2CCCCC2)c(OC)c1
2. COc1ccc(-c2ncc3c(n2)CCN(C(=O)Nc2ccc(F)c(Cl)c2)C3)cc1
Task: Pick one, 1 or 2 : lowest reported RP-LC retention time. Identify your pick by its label.
Output: 1

P. Cc1cccc(-c2nnc(CC(=O)NC3CCCC3)o2)c1
Q. COc1cccc(CNC(=O)N2c3ccccc3CC2c2nc(C(C)C)no2)c1 (stereo not given)
Task: Higher RP-LC retention time: P or Q ? I would appreciate it if you answered with the label of your choice.
Output: Q
(Q: 1000 s, P: 658 s)

====

Assay: gradient 5% acetonitrile 3 min, to 50% in 2 min, to 85% in 15 min, held 3 min, 100 µL/min
Settings: column: Zorbax Extend-C18 2.1 x 50 mm; eluents: water / acetonitrile, 0.1% formic acid
recorded endpoint: RP-LC retention time (s)

Cc1nnc2cc(N3CCN(S(=O)(=O)c4ccc(C#N)cc4)CC3)cnn12: 642
O=C(NCCOc1ccc(-c2cccs2)nn1)NCc1ccccc1: 734
Cc1ccc(NC(=O)C2CCCN(c3ncnc4c3nc3n4CCCCC3)C2)c(Cl)c1 (stereo unspecified): 855

A. Cc1csc(-n2nc(C)c(CC(=O)Nc3ccc(Cl)cc3)c2C)n1
B. O=C(CCc1c(-c2cccc(Cl)c2)nc2ccccn12)NCc1ccco1
Task: Parameter check: reported RP-LC retention time is higher for which label, A or B ? Give the label of your selection.
Output: A

====

Assay: gradient 5% acetonitrile 3 min, to 50% in 2 min, to 85% in 15 min, held 3 min, 100 µL/min
Details: column: Zorbax Extend-C18 2.1 x 50 mm; eluents: water / acetonitrile, 0.1% formic acid
recorded endpoint: RP-LC retention time (s)

CCOc1ccc(C2Cn3nnc(-c4nc(-c5ccccc5OCC)no4)c3CO2)cc1 (stereo not given): 1200
Cc1nc(C)c(C(=O)N2CCCC(c3nnc(-c4ccc5c(c4)OCO5)o3)C2)s1 (stereo not given): 669

1. O=C(Nc1nnc(Cc2cccs2)o1)c1cc2cc([N+](=O)[O-])ccc2s1
2. COc1cc(CN2CCC3(CC2)CC(O)CCO3)ccc1F (stereo not given)
Task: Decide: 1 or 2 , by lowest recorded RP-LC retention time. Your answer should be the label of the entry you select.
Output: 2

A. O=C(CSc1ncccn1)N1CCC(Cc2ccccc2)CC1
B. COCC(C)(O)CNC(=O)c1cn(C)nc1OC (stereo not given)
Task: In the pair A and B , the larger recorded RP-LC retention time belongs to which? Give the chosen item's label as your response.
Output: A
(A: 820 s, B: 561 s)

====

Assay: gradient 5% acetonitrile 3 min, to 50% in 2 min, to 85% in 15 min, held 3 min, 100 µL/min
Settings: column: Zorbax Extend-C18 2.1 x 50 mm; eluents: water / acetonitrile, 0.1% formic acid
recorded endpoint: RP-LC retention time (s)

a. CS(=O)(=O)N1CCC(C(=O)N2CCC3(CC2)OCCS3)CC1
b. O=C(Nc1cccc(C(F)(F)F)c1)NC1(c2nc(C3CC3)no2)CCCCC1
Task: Select the item with the higher value of RP-LC retention time from the options a and b listed. In your reply, give the label of the chosen option.
Output: b

1. COC(=O)c1ccc(NC(=O)C(=O)NCCN2CCN(c3ccccc3OC)CC2)cc1
2. Nc1nc(-c2ccccc2)nn1C(=O)c1ccc(F)cc1
Task: Just tell me: smaller RP-LC retention time value, 1 or 2 ? Return value: the label identifying the chosen record.
Output: 1
(1: 581 s, 2: 974 s)

I. Cc1oc2ncn(CC(=O)N3CCC(C(N)=O)CC3)c(=O)c2c1C
II. O=C(Nc1nc2c(s1)COc1ccccc1-2)c1cc(Cl)ccc1Cl
Task: Response body: label of entry with the larger RP-LC retention time; valid values I , II . Record your answer as the label of the chosen record.
Output: II

====

Assay: gradient 5% acetonitrile 3 min, to 50% in 2 min, to 85% in 15 min, held 3 min, 100 µL/min
Details: column: Zorbax Extend-C18 2.1 x 50 mm; eluents: water / acetonitrile, 0.1% formic acid
recorded endpoint: RP-LC retention time (s)

Cc1ccc2c(Nc3ccc(F)c(Cl)c3)c(-c3nc(C)no3)cnc2n1: 804
COc1ccc(NC(=O)C2CCN(S(C)(=O)=O)c3cc(Cl)ccc3O2)cc1 (stereo not given): 918
COc1ccccc1CCC(=O)N1CCC2(CC1)NCc1ccccc1-n1ccnc12: 623
CC(CCc1ccccc1)NC(=O)c1ccc(-n2cccn2)nc1 (stereo not given): 858
O=c1n(CCOc2ccccc2)nc2ccc(S(=O)(=O)N3CCOCC3)cn12: 792
COc1ccc(-c2nc3cnccn3c2Nc2ccc(F)cc2)cc1OC: 768
CC(NC(=O)c1ccc2ncnc(N3CCCCC3)c2c1)c1ccc(F)cc1 (stereo not given): 687
CSc1ncccc1C(=O)N1CCCn2nc(-c3ccncc3)cc2C1: 586
CCc1ccccc1NC(=O)N1C[C@@H](F)C[C@H]1C(=O)N1CCc2ccccc2C1: 811
O=C(C1CC1)N1CCC(Cc2noc(C3CC3)n2)C1 (stereo not given): 686

====

Experiment: gradient 5% acetonitrile 3 min, to 50% in 2 min, to 85% in 15 min, held 3 min, 100 µL/min
Settings: column: Zorbax Extend-C18 2.1 x 50 mm; eluents: water / acetonitrile, 0.1% formic acid
recorded endpoint: RP-LC retention time (s)

Examples with answers:
Cc1cc(C)cc(C(=O)N2C[C@@H]3C[C@H](NC(=O)c4cccnc4)[C@H]2C3)c1: 658
Cc1ccc(CNC(=O)Cn2c(=O)cc(-c3nc(C)no3)c3ccccc32)cc1: 857
Cc1ncc2c(n1)C[C@@H]1CC[C@H]2N1C(=O)c1ccc2c(c1)OCO2: 639

a. COC(=O)CNC(=O)Nc1ccc2nc(-c3ccc(F)cc3)cc(OC)c2c1
b. COc1cc(OC)cc(-c2nnc(Cc3nc(-c4ccccc4C)no3)o2)c1
Task: Select the item with the higher value of RP-LC retention time from the options a and b listed. Kindly give the label for the entry you pick.
Output: b
(b: 1060 s, a: 624 s)

====

Test: gradient 5% acetonitrile 3 min, to 50% in 2 min, to 85% in 15 min, held 3 min, 100 µL/min
Conditions: column: Zorbax Extend-C18 2.1 x 50 mm; eluents: water / acetonitrile, 0.1% formic acid
recorded endpoint: RP-LC retention time (s)

O=C(Cc1ccccc1F)NC1CCN(c2cc(-c3ccccc3)[nH]n2)C1 (stereo not given): 688
CCc1ccc(NC(=O)C2CCCN2S(=O)(=O)c2ccc3c(c2)NC(=O)CO3)cc1 (stereo not given): 859
Cc1cc(N2CCN(C(=O)c3ccc(Cl)cc3)CC2)nc(N2CCOCC2)n1: 639
CCn1nnc2cc(-c3noc(-c4ccc(NC(C)=O)cc4)n3)ccc21: 812
O=C(Cn1cccc(-c2nc(-c3ccc(F)cc3)no2)c1=O)N1CCN(c2ccc(F)cc2)CC1: 898
